Test system: Escherichia coli TOP10
Assay: shrunken log2 fold change of peptide-encoding DNA abundance (4.5 h post-induction vs induction); higher = less antimicrobial activity (less host growth inhibition)
Conditions: time post-induction: 4.5 h; library: site-saturation at positions 5, 18, 19, 20
For each entry below, report its shrunken log2 fold change value.
Give bare numbers.

| Sequence | shrunken log2 fold change |
| --- | --- |
| RRIRQRPPRLPRPRPRPIPCPRP | -0.244 |

List the reported shrunken log2 fold change of each sequence below.
1. RRIRGRPPRLPRPRPRPAWFPRP
2. RRIRARPPRLPRPRPRPRFFPRP
3. RRIRKRPPRLPRPRPRPFTHPRP
4. RRIRHRPPRLPRPRPRPKSLPRP
5. RRIRVRPPRLPRPRPRPHVCPRP
6. RRIRSRPPRLPRPRPRPFFQPRP
7. RRIRMRPPRLPRPRPRPHAIPRP
8. RRIRWRPPRLPRPRPRPGSYPRP

1: 0.652; 2: 0.453; 3: 0.0159; 4: -0.0347; 5: -0.0775; 6: -0.105; 7: 0.224; 8: -0.0955

List the reported shrunken log2 fold change of each sequence below.
1. RRIRMRPPRLPRPRPRPENHPRP
2. RRIRTRPPRLPRPRPRPEPPPRP

1. 0.0929
2. 0.395

List the reported shrunken log2 fold change of each sequence below.
1. RRIRPRPPRLPRPRPRPNDTPRP
2. RRIRTRPPRLPRPRPRPCRTPRP
3. RRIRMRPPRLPRPRPRPQPSPRP
4. RRIRLRPPRLPRPRPRPVCLPRP
5. RRIRRRPPRLPRPRPRPNCSPRP
6. RRIRSRPPRLPRPRPRPNDQPRP
7. RRIRGRPPRLPRPRPRPCKTPRP
8. RRIRCRPPRLPRPRPRPNKAPRP

[-0.338, -0.0391, 1.11, -0.0821, 0.198, -0.102, 0.0121, -0.116]

* * *

For each entry below, report its shrunken log2 fold change value.
System: Escherichia coli TOP10
Assay: shrunken log2 fold change of peptide-encoding DNA abundance (4.5 h post-induction vs induction); higher = less antimicrobial activity (less host growth inhibition)
Settings: time post-induction: 4.5 h; library: site-saturation at positions 5, 18, 19, 20
One number for each entry.

List the reported shrunken log2 fold change of each sequence below.
1. RRIRERPPRLPRPRPRPLCLPRP
2. RRIRGRPPRLPRPRPRPPHSPRP
3. RRIRRRPPRLPRPRPRPEKCPRP

-0.679
0.568
-0.00259

List the reported shrunken log2 fold change of each sequence below.
1. RRIRMRPPRLPRPRPRPKNNPRP
2. RRIRRRPPRLPRPRPRPVSNPRP

1: 0.311; 2: -0.111

* * *

Test system: Escherichia coli TOP10
Assay: shrunken log2 fold change of peptide-encoding DNA abundance (4.5 h post-induction vs induction); higher = less antimicrobial activity (less host growth inhibition)
Details: time post-induction: 4.5 h; library: site-saturation at positions 5, 18, 19, 20
Tick label 1 if shrunken log2 fold change is 0.05 or greater. Tick label 0 if shrunken log2 fold change is less than 0.05.

Some entries whose results are on file:
| Sequence | Qualitative label |
| --- | --- |
| RRIRPRPPRLPRPRPRPFWRPRP | label 1 |
| RRIRRRPPRLPRPRPRPEQVPRP | label 0 |
| RRIRERPPRLPRPRPRPHAMPRP | label 0 |
| RRIRKRPPRLPRPRPRPLYWPRP | label 1 |
| RRIRGRPPRLPRPRPRPDEVPRP | label 1 |

Decide: is the reported value of shrunken log2 fold change for RRIRSRPPRLPRPRPRPIRVPRP equal to or greater than 0.05?
label 0

Decide: is the reported value of shrunken log2 fold change for RRIRIRPPRLPRPRPRPLTPPRP equal to or greater than 0.05?
label 0

Decide: is the reported value of shrunken log2 fold change for RRIRDRPPRLPRPRPRPEKDPRP equal to or greater than 0.05?
label 1

* * *

System: Escherichia coli TOP10
Experiment: shrunken log2 fold change of peptide-encoding DNA abundance (4.5 h post-induction vs induction); higher = less antimicrobial activity (less host growth inhibition)
Conditions: time post-induction: 4.5 h; library: site-saturation at positions 5, 18, 19, 20
Measured quantity: shrunken log2 fold change
Answers are plain numbers.

| Sequence | Target system | shrunken log2 fold change |
| --- | --- | --- |
| RRIRERPPRLPRPRPRPADMPRP | Escherichia coli TOP10 | -0.0494 |
| RRIRERPPRLPRPRPRPRIGPRP | Escherichia coli TOP10 | -0.0649 |
| RRIRHRPPRLPRPRPRPLLDPRP | Escherichia coli TOP10 | -0.117 |
| RRIRVRPPRLPRPRPRPLKCPRP | Escherichia coli TOP10 | -0.412 |
| RRIRYRPPRLPRPRPRPICPPRP | Escherichia coli TOP10 | -0.471 |
| RRIRNRPPRLPRPRPRPLQFPRP | Escherichia coli TOP10 | 0.0375 |

List the reported shrunken log2 fold change of each sequence below.
1. RRIRERPPRLPRPRPRPNWYPRP
2. RRIRPRPPRLPRPRPRPCSWPRP
3. RRIRQRPPRLPRPRPRPSLRPRP
4. RRIRRRPPRLPRPRPRPDTGPRP

1. -0.563
2. 0.0726
3. 0.239
4. 0.0107

* * *

Tested on: Escherichia coli TOP10
Assay: shrunken log2 fold change of peptide-encoding DNA abundance (4.5 h post-induction vs induction); higher = less antimicrobial activity (less host growth inhibition)
Conditions: time post-induction: 4.5 h; library: site-saturation at positions 5, 18, 19, 20
Measured quantity: shrunken log2 fold change

Examples with answers:
| Sequence | shrunken log2 fold change |
| --- | --- |
| RRIRKRPPRLPRPRPRPHDKPRP | 0.176 |
| RRIRNRPPRLPRPRPRPTNVPRP | 0.0366 |
| RRIRLRPPRLPRPRPRPRCPPRP | 0.188 |
| RRIRPRPPRLPRPRPRPYRKPRP | 0.0208 |
| RRIRVRPPRLPRPRPRPMMSPRP | 0.00438 |
| RRIRRRPPRLPRPRPRPHQFPRP | -0.183 |

List the reported shrunken log2 fold change of each sequence below.
1. RRIRDRPPRLPRPRPRPPNFPRP
2. RRIRHRPPRLPRPRPRPISRPRP
3. RRIRGRPPRLPRPRPRPIKHPRP
4. RRIRVRPPRLPRPRPRPQDYPRP
5. RRIRSRPPRLPRPRPRPGEIPRP

1: 0.0198; 2: -0.0532; 3: 0.171; 4: -0.125; 5: 0.223

List the reported shrunken log2 fold change of each sequence below.
1. RRIRFRPPRLPRPRPRPHYTPRP
2. RRIRSRPPRLPRPRPRPLPAPRP
3. RRIRWRPPRLPRPRPRPYKMPRP
4. RRIRARPPRLPRPRPRPIFEPRP

1: -0.385; 2: 0.494; 3: 0.0642; 4: 0.125

* * *

Tested on: Escherichia coli TOP10
Assay: shrunken log2 fold change of peptide-encoding DNA abundance (4.5 h post-induction vs induction); higher = less antimicrobial activity (less host growth inhibition)
Settings: time post-induction: 4.5 h; library: site-saturation at positions 5, 18, 19, 20
Would you mind sorting the entries by shrunken log2 fold change according to these classes? group 1: < -0.3; group 2: ≥ -0.3 and < 0.07; group 3: ≥ 0.07

| Sequence | Qualitative label |
| --- | --- |
| RRIRSRPPRLPRPRPRPHHYPRP | group 1 |

# input for lookup
Categorize the following entry: RRIRGRPPRLPRPRPRPSDVPRP
group 2

* * *

Tested on: Escherichia coli TOP10;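 note: peptides expressed intracellularly from a pBAD plasmid library in pooled LB shake-flask culture, induced with 0.3% L-arabinose, DNA abundance read by NGS, three biological replicates, DESeq2 with apeglm shrinkage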
Assay: shrunken log2 fold change of peptide-encoding DNA abundance (4.5 h post-induction vs induction); higher = less antimicrobial activity (less host growth inhibition)
Settings: time post-induction: 4.5 h; library: site-saturation at positions 5, 18, 19, 20
Tick true if shrunken log2 fold change is 0.02 or greater. Tick false if shrunken log2 fold change is less than 0.02.

Some entries whose results are on file:
| Sequence | Qualitative label |
| --- | --- |
| RRIRSRPPRLPRPRPRPQHDPRP | false |
| RRIRKRPPRLPRPRPRPHLDPRP | false |
| RRIRFRPPRLPRPRPRPYLRPRP | false |
| RRIRIRPPRLPRPRPRPIDTPRP | false |
| RRIRLRPPRLPRPRPRPTEHPRP | true |

Decide: is the reported value of shrunken log2 fold change for RRIRKRPPRLPRPRPRPKNNPRP equal to or greater than 0.02?
false

Decide: is the reported value of shrunken log2 fold change for RRIRFRPPRLPRPRPRPCPFPRP equal to or greater than 0.02?
false

Decide: is the reported value of shrunken log2 fold change for RRIRPRPPRLPRPRPRPKTGPRP equal to or greater than 0.02?
true

Decide: is the reported value of shrunken log2 fold change for RRIRFRPPRLPRPRPRPCSGPRP equal to or greater than 0.02?
false

Decide: is the reported value of shrunken log2 fold change for RRIRHRPPRLPRPRPRPDLRPRP equal to or greater than 0.02?
false

Decide: is the reported value of shrunken log2 fold change for RRIRDRPPRLPRPRPRPSNCPRP equal to or greater than 0.02?
false
